target: HLA-A*02:01; assay: IEDB peptide-MHC binding, purified MHC/direct/fluorescence; filed as Kd, often an IC50 or EC50 that approximates it; bounds were set here for any values at or beyond the usual limits of such assays; conditions: source organism: Vibrio vulnificus
Reported property: Kd

Provide only the value of recorded Kd for VQLLGRRFV ≥ 20 µM

====

target: HLA-B*51:01; test: IEDB peptide-MHC binding, purified MHC/competitive/fluorescence; filed as Kd, often an IC50 or EC50 that approximates it; bounds were set here for any values at or beyond the usual limits of such assays; details: source organism: Sudan ebolavirus
pKd: −log10 of the molar value.
Reported property: pKd

Entry TMMRHRREL needs its pKd filled in; supply it. ≤ 4.70

Attribution: the Immune Epitope Database (IEDB)
